- Test system: MS2 coat protein
- procedureSummary: apparent KD of MS2 coat protein; designed switch direction (-1 OFF switch, 1 ON switch): 1; higher = weaker reporter binding
- appliedConditions: input ligand: none
Values of apparent KD of MS2 coat protein greater than or equal to 100 nM map to t; values below map to f.

{"sequenceContent": "GCUACAUGAGGAUCACCCAUGUGUGCGUGGGAGUGAGUGGCUUAGGAUAUCUAUGACUUGAGUUGAGAGAAGGAGGGUUGCUGU [SS-NG3-LRO13] (Eterna round: R96, puzzle: Same State NG 3)", "className": "f"}
{"sequenceContent": "UUAAUUUAUUGAGGAUAUUAUGUCGACUGAGUUGACAUGAGGAUCACCCAUGUGAGAAGUGGUAUUAAGAAGGCAAUAUUCAUA [JR_SSNG2_Sub087] (Eterna round: R96, puzzle: Same State NG 2)", "className": "t"}
{"sequenceContent": "UGCCUGAGUCGAGGAUAUUAUGGAUCCUUUAAUACAUGAGGAUCACCCAUGUAAUUAAUUAUACAUGAGAAGGUGACUCAGGCA [SSNG2/11-B2] (Eterna round: R96, puzzle: Same State NG 2)", "className": "t"}
{"sequenceContent": "ACAUGAGACUCAGGAUAUGUUGUACCUACAUGUGACAUGAGGAUCACCCAUGUGGUAAGUAUGAUACAGAAGGGAGAGAUAUGU [Equivalance 65 - Jieux - Same State NG 2] (Eterna round: R96, puzzle: Same State NG 2)", "className": "f"}
{"sequenceContent": "AUUCUUAAUGCAGGAUAUGAUUAACAUGAGGAUCACCCAUGUGGUGUUGUGAGUAAGGAGAGUGAUCAGAAGGGCAUUUUUUUU [JMF's solution 32] (Eterna round: R96, puzzle: Same State NG 2)", "className": "t"}
{"sequenceContent": "UAGGUUGAGCAAGGAUAUCCAAGAUUGAUUCGUAUCGACAUGAGGAUCACCCAUGUCCCGAGAAGGGAGAAGGUGCGUCCAACC [Eternabot solution 30] (Eterna round: R96, puzzle: Same State NG 2)", "className": "f"}
{"sequenceContent": "GUAGCAUACCGAGGAUAUUCAUAUUAUACAUGAGGAUCACCCAUGUGGCCACAUUAGUGGCCUUGGGAGAAGGCGGAAUGCUAC [Xeonanis - 20 Mod37] (Eterna round: R96, puzzle: Same State NG 2)", "className": "t"}
{"sequenceContent": "UUAUUAUUUACAUGAGGAUCACCCAUGUUUUUAUGUCAGAGAUAGGAUAUAGUUUUCUCGUUUUUCUAGAAGGAUCUUUUUAUU [JR_SSNG3_Sub085] (Eterna round: R96, puzzle: Same State NG 3)", "className": "f"}
{"sequenceContent": "GAAAAGCAGAGAGGAUAUGUCACUCAUGCCGUGACACAUGAGGAUCACCCAUGUUCAAUCCGGCCGCAGAAGGCUCCGCGAAAA [Eternabot solution 25] (Eterna round: R96, puzzle: Same State NG 2)", "className": "f"}
{"sequenceContent": "GGACGUCAAUAUGAAUUCCACAUGAGGAUCACCCAUGUUCAUGAGGAUAUGGAUCCUAAUUGGAUCCAGAAGGCAUGGACGUCC [Fiskers NG3ss - 38] (Eterna round: R96, puzzle: Same State NG 3)", "className": "t"}
{"sequenceContent": "UUAUCUCAGACAUGAGGAUCACCCAUGUUUUUUUGUCUUUGACAGGAUAUAGUUGUUUCGUUUUACUAGAAGGGUCAUUUUAUU [JR_SSNG3_Sub024] (Eterna round: R96, puzzle: Same State NG 3)", "className": "f"}
{"sequenceContent": "AGGCUCAGACGAGGAUAUGAUCAUGGCGCUUCGGCGCAUACAUGAGGAUCACCCAUGUAAAGUGAUCAGAAGGCGUCUGAGCCA [SSNG2/7-A1] (Eterna round: R96, puzzle: Same State NG 2)", "className": "f"}
{"sequenceContent": "GCUACCAUUGAAGCCAACAUGAGGAUCACCCAUGUAUGUUGGCAGGAUAUCGAUUGCUUUGCGAUCGAGAAGGGCUAAGGUAGC [JL SSNG3 1.29] (Eterna round: R96, puzzle: Same State NG 3)", "className": "t"}
{"sequenceContent": "GCCGCGUUUCGCGCCUACAUGAGGAUCACCCAUGUUUGUGGGCAGGAUAUCGUCCGCUCUGCGGGCGAGAAGGGCUGUUGUGGG [salish99_SSNG3_R04_024] (Eterna round: R96, puzzle: Same State NG 3)", "className": "t"}
{"sequenceContent": "GUAGUACAUGAGGAUCACCCAUGUUUCCUCCAAGAGUUCUUCGAGGAUAUGUCAUGGAAUCCACAAUAGAAGGCGGAGAACCAA [Eternabot solution 39] (Eterna round: R96, puzzle: Same State NG 3)", "className": "t"}
{"sequenceContent": "GCUAGGAAAGAAGCCAACAUGAGGAUCACCCAUGUAUGUUGGUAGGAUAUCGUAUGCAAAGCAUACGAGAAGGGCUAACCUAGC [Mat - Same State NG 3 - JL Mod - D74] (Eterna round: R96, puzzle: Same State NG 3)", "className": "t"}
{"sequenceContent": "GGCCUGGGUCAAGGAUAUGCUACCGUUUCGGUAGCAGAAGGUGAUCACAUGAGGAUCACCCAUGUUUACGCGAAGACGCGCGCC (Eterna round: R96, puzzle: Same State NG 1)", "className": "t"}

* * *

List of apparent KD of MS2 coat protein values.
- Tested on: MS2 coat protein
- procedureSummary: apparent KD of MS2 coat protein; designed switch direction (-1 OFF switch, 1 ON switch): 1; higher = weaker reporter binding
- appliedConditions: Eterna round: R95; input ligand: microRNA oligo, concentration not stated

{"sequenceContent": "AUAAAACAUGAGGAUCACCCAUGUCAACAAAGUCGAGGAUAUGGGCAAAGAAAAUAAGAACCAGAAGGCGAAUAAU [salish99_ss1_r3_056] (puzzle: Same State 1)", "apparent KD of MS2 coat protein": "319 nM"}
{"sequenceContent": "GAAUUUGAACUACAGGAUAUAUAGCAGAUGACAUGAGGAUCACCCAUGUAAGAGAAAGGAGGGAAAUAGAAGGGUAUGGGAGGUG [JR_SS2_Sub034] (puzzle: Same State 2)", "apparent KD of MS2 coat protein": "32.9 nM"}
{"sequenceContent": "GUGCGAGUGCCACAGGAUAUACGUGGAUCGACAUGAGGAUCACCCAUGUAUAUCCUAAUAAUUGCGUAGAAGGGUGGUCAGUCGG [Inzage] (puzzle: Same State 2)", "apparent KD of MS2 coat protein": "74.8 nM"}
{"sequenceContent": "AUAAAACAUGAGGAUCACCCAUGUCAACAAAGUCGAGGAUAUGGGCAAAUAAAAUAAGAACCAGAAGGCGAAUAAG [salish99_SS1_r3_004] (puzzle: Same State 1)", "apparent KD of MS2 coat protein": "88 nM"}
{"sequenceContent": "AGUCCAGCCUGAGCUGGACAAAAGCAUGUACAUGAGGAUCACCCAUGUUCAUGUACAAGCUUUUUGCUCGUCGGAAU [Mat - hsa-mir-208a - Mod of JL - 49] (puzzle: Sensor for hsa-mir-208a)", "apparent KD of MS2 coat protein": "16.5 nM"}
{"sequenceContent": "GGAGAACAUGAGGAUCACCCAUGUGGAUGGGCGCUAGGAUAUGCGGGAGGGUGAAGAGAAGCAGAAGGAGUGGAUA [JR_SS1_Sub035] (puzzle: Same State 1)", "apparent KD of MS2 coat protein": "56.7 nM"}
{"sequenceContent": "GGUCCAGCCUGAGCUGGACUACAGCAUGUACAUGAGGAUCACCCAUGUCAUGUACAAGAAUGUUGUUUGUCUUAAAA [Sensorship 8 - Jieux - Sensor for hsa-mir-208a] (puzzle: Sensor for hsa-mir-208a)", "apparent KD of MS2 coat protein": "64.3 nM"}
{"sequenceContent": "GUACUACAUGAGGAUCACCCAUGUACAAAGGUACGAGGAUAUGCAUGUACGAAAGUAUAUGCAGAAGGCGUAGUAC [Pin2Pin #2] (puzzle: Same State 1)", "apparent KD of MS2 coat protein": "23.3 nM"}
{"sequenceContent": "CAAGUACAUGAGGAUCACCCAUGUGGAAGAGAUGCAGGAUAUGUGGGAGAAGGGAGUGUAACAGAAGGGCAAGGAG [JR_SS!_Sub019] (puzzle: Same State 1)", "apparent KD of MS2 coat protein": "71.8 nM"}
{"sequenceContent": "UCUUGGUUUUUGCUCGUUUUUUGUGUUGAACAUGAGGAUCACCCAUGUAUUGUACGGUCCGAUUUAGUGGUAGUCCG [JMF 72] (puzzle: Sensor for hsa-mir-208a)", "apparent KD of MS2 coat protein": "23.5 nM"}

Values from the supplement of paper PMC9170038
